STUDY_SYSTEM: Neu5Ac(a2-6)Gal(b1-4)GlcNAc(b1-2)Man(a1-6)[GlcNAc(b1-2)Man(a1-3)]Man(b1-4)GlcNAc(b1-4)GlcNAc
METHOD_SUMMARY: glycan array binding signal (z-score within array); higher = stronger binding
TEST_CONTEXT: glycan notation: IUPAC condensed, linker removed
The entries come from a sample that favours the strongest signals as a whole.
MEASUREMENT_LABEL: glycan array binding signal (z-score)

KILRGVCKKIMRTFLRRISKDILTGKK [NK2 (Sus scrofa)]
0.794
PpFlo2 (Pichia pastoris) (protein) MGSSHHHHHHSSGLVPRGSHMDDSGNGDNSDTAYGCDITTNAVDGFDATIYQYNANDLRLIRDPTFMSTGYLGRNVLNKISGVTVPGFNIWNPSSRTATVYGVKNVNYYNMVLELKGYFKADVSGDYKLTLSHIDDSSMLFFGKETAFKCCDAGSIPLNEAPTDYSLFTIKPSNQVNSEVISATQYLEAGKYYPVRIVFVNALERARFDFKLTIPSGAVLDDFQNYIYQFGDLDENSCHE
2.77
